- measured_on: AtAHAS P197T mutant (Arabidopsis thaliana, UniProt P17597, P197T)
- Format: biochemical
- run_parameters: P197T; NAI = no accumulative inhibition detected
measurement_name: kiapp/k3 (efficiency of accumulative inhibition)

INSERT INTO measurements (compound, measured_on, result) VALUES
  ('COc1cc(OC)nc(Oc2cccc(Oc3nc(OC)cc(OC)n3)c2C(=O)O)n1 [BS, bispyribac]', 'AtAHAS P197T mutant (Arabidopsis thaliana, UniProt P17597, P197T)', 37),
  ('COc1cc(OC)nc(NC(=O)NS(=O)(=O)N(C)S(C)(=O)=O)n1 [AS, amidosulfuron]', 'AtAHAS P197T mutant (Arabidopsis thaliana, UniProt P17597, P197T)', 'NAI'),
  ('COc1cnc(OC)n2nc(NS(=O)(=O)c3c(OCC(F)F)cccc3C(F)(F)F)nc12 [PS, penoxsulam]', 'AtAHAS P197T mutant (Arabidopsis thaliana, UniProt P17597, P197T)', 'NAI'),
  ('CC(C)C1(C)N=C(c2nc3ccccc3cc2C(=O)O)NC1=O (stereo not shown) [IQ, imazaquin]', 'AtAHAS P197T mutant (Arabidopsis thaliana, UniProt P17597, P197T)', '>10^11');

----------
In this section, each of the compounds is paired with its reported k3 (rate of recovery).
- measured_on: WT AtAHAS (Arabidopsis thaliana)
- Sequence (P17597 86-670): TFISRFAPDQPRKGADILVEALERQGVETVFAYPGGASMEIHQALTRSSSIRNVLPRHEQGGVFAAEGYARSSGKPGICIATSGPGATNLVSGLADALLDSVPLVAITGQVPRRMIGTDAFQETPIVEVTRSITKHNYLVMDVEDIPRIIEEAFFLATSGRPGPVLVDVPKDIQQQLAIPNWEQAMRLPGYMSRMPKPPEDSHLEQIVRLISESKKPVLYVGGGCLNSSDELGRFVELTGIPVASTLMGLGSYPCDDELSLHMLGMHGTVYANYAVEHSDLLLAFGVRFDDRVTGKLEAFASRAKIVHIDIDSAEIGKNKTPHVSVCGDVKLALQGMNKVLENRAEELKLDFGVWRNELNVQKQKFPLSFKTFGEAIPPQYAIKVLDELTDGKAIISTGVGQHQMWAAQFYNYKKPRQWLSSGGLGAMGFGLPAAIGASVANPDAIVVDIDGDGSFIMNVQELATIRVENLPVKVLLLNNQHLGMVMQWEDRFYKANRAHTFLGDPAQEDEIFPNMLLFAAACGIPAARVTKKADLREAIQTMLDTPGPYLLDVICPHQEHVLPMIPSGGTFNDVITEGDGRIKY
- Type: biochemical
- run_parameters: 160 mM pyruvate, 30 °C, ± SEM
measurement_name: k3 (rate of recovery) (min⁻¹)

INSERT INTO assay_data (compound, measured_on, comparator, quantitative_readout) VALUES
  ('COc1cc(OC)nc(NC(=O)NS(=O)(=O)N(C)S(C)(=O)=O)n1', 'WT AtAHAS (Arabidopsis thaliana)', '=', 0.02),
  ('COc1cc(OC)nc(Oc2cccc(Oc3nc(OC)cc(OC)n3)c2C(=O)O)n1', 'WT AtAHAS (Arabidopsis thaliana)', '=', 0.018),
  ('CC(C)C1(C)N=C(c2nc3ccccc3cc2C(=O)O)NC1=O (stereo not shown)', 'WT AtAHAS (Arabidopsis thaliana)', '<', '1e-12'),
  ('COc1cnc(OC)n2nc(NS(=O)(=O)c3c(OCC(F)F)cccc3C(F)(F)F)nc12', 'WT AtAHAS (Arabidopsis thaliana)', '=', 0.014);

----------
- measured_on: AtAHAS P197L mutant (Arabidopsis thaliana, UniProt P17597, P197L)
- Format: biochemical
- run_parameters: 160 mM pyruvate, 30 °C, NAI = no accumulative inhibition detected
measurement_name: kiapp (apparent rate of enzyme inactivation)

INSERT INTO measurements (molecule, result) VALUES
  ('COc1cnc(OC)n2nc(NS(=O)(=O)c3c(OCC(F)F)cccc3C(F)(F)F)nc12', 'NAI'),
  ('COc1cc(OC)nc(NC(=O)NS(=O)(=O)N(C)S(C)(=O)=O)n1', 'NAI'),
  ('CC(C)C1(C)N=C(c2nc3ccccc3cc2C(=O)O)NC1=O (stereo not shown)', '0.26 ± 0.008 min⁻¹'),
  ('COc1cc(OC)nc(Oc2cccc(Oc3nc(OC)cc(OC)n3)c2C(=O)O)n1', '1.15 ± 0.09 min⁻¹');

----------
Reported pKi values for a set of molecules
- measured_on: AtAHAS W574L mutant (Arabidopsis thaliana, UniProt P17597, W574L)
- experimental_details: biochemical
- run_parameters: Ki, W574L mutant; ± standard error of the mean
pKi: −log10 of the molar value.
measurement_name: pKi

INSERT INTO assay_data (molecule, measured_on, quantitative_readout) VALUES
  ('COc1cc(OC)nc(Oc2cccc(Oc3nc(OC)cc(OC)n3)c2C(=O)O)n1', 'AtAHAS W574L mutant (Arabidopsis thaliana, UniProt P17597, W574L)', 5.21),
  ('COc1cc(OC)nc(NC(=O)NS(=O)(=O)N(C)S(C)(=O)=O)n1', 'AtAHAS W574L mutant (Arabidopsis thaliana, UniProt P17597, W574L)', 3.06),
  ('COc1cc(OC)n2nc(S(=O)(=O)Nc3c(Cl)ccc(C)c3Cl)nc2n1', 'AtAHAS W574L mutant (Arabidopsis thaliana, UniProt P17597, W574L)', 4.41),
  ('COc1cc(OC)nc(Sc2cccc(Cl)c2C(=O)O)n1', 'AtAHAS W574L mutant (Arabidopsis thaliana, UniProt P17597, W574L)', 4.04),
  ('CC(C)C1(C)N=C(c2nc3ccccc3cc2C(=O)O)NC1=O (stereo not drawn)', 'AtAHAS W574L mutant (Arabidopsis thaliana, UniProt P17597, W574L)', 3.15),
  ('COc1cnc(OC)n2nc(NS(=O)(=O)c3c(OCC(F)F)cccc3C(F)(F)F)nc12', 'AtAHAS W574L mutant (Arabidopsis thaliana, UniProt P17597, W574L)', 4.17);

----------
- measured_on: AtAHAS P197L mutant (Arabidopsis thaliana, UniProt P17597, P197L)
- Assay type: biochemical
- run_parameters: 160 mM pyruvate, 30 °C, NAI = no accumulative inhibition detected
measurement_name: k3 (rate of recovery)

INSERT INTO measurements (compound, result) VALUES
  ('COc1cc(OC)nc(NC(=O)NS(=O)(=O)N(C)S(C)(=O)=O)n1', 'NAI'),
  ('COc1cc(OC)nc(Oc2cccc(Oc3nc(OC)cc(OC)n3)c2C(=O)O)n1', '0.037 ± 0.003 min⁻¹'),
  ('COc1cnc(OC)n2nc(NS(=O)(=O)c3c(OCC(F)F)cccc3C(F)(F)F)nc12', 'NAI'),
  ('CC(C)C1(C)N=C(c2nc3ccccc3cc2C(=O)O)NC1=O (stereo not shown)', '<1e-12 min⁻¹');

----------
pKi for assorted compounds
- measured_on: AtAHAS W574L mutant (Arabidopsis thaliana, UniProt P17597, W574L)
- experimental_details: biochemical
- run_parameters: Ki (Supplementary Figure 6), W574L; fit of % activity remaining vs [I]; two independent replicates
pKi: −log10 of the molar value.
measurement_name: pKi

INSERT INTO measurements (molecule_smiles, quantitative_readout) VALUES
  ('COc1cc(OC)nc(Sc2cccc(Cl)c2C(=O)O)n1', 4.04),
  ('COc1cc(OC)nc(Oc2cccc(Oc3nc(OC)cc(OC)n3)c2C(=O)O)n1', 5.21),
  ('COc1cc(OC)nc(NC(=O)NS(=O)(=O)N(C)S(C)(=O)=O)n1', 3.06),
  ('COc1cnc(OC)n2nc(NS(=O)(=O)c3c(OCC(F)F)cccc3C(F)(F)F)nc12', 4.17);

----------
- measured_on: AtAHAS P197T mutant (Arabidopsis thaliana, UniProt P17597, P197T)
- Type: biochemical
- run_parameters: P197T; 160 mM pyruvate, 30 °C; NAI = no accumulative inhibition detected
measurement_name: kiapp (apparent rate of enzyme inactivation) (min⁻¹)

INSERT INTO measurements (compound, quantitative_readout) VALUES
  ('COc1cc(OC)nc(Oc2cccc(Oc3nc(OC)cc(OC)n3)c2C(=O)O)n1 [BS, bispyribac]', 1.14),
  ('CC(C)C1(C)N=C(c2nc3ccccc3cc2C(=O)O)NC1=O (stereo not shown) [IQ, imazaquin]', 0.27);

----------
- measured_on: WT AtAHAS (Arabidopsis thaliana)
- Format: biochemical
- run_parameters: 160 mM pyruvate, 30 °C, ± SEM
- Protocol: Standard assays were performed using a continuous spectrophotometric method measuring the disappearance of pyruvate. The standard buffer contained 50 mM potassium phosphate, pH 7.2, 1 mM ThDP, 10 mM MgCl2, and 10 µM FAD. The concentration of pyruvate was in the range 100–160 mM, as described in the text, methods, or figure legends. […] Supplementary Figure 8. […] The rate constants of enzyme inactivation ( kiapp) and enzyme recovery (k3) were measured in triplicate. […]
measurement_name: kiapp (apparent rate of enzyme inactivation) (min⁻¹)

INSERT INTO measurements (compound, quantitative_readout) VALUES
  ('CC(C)C1(C)N=C(c2nc3ccccc3cc2C(=O)O)NC1=O (stereo not shown)', 0.86),
  ('COc1cnc(OC)n2nc(NS(=O)(=O)c3c(OCC(F)F)cccc3C(F)(F)F)nc12', 1.22),
  ('COc1cc(OC)nc(Oc2cccc(Oc3nc(OC)cc(OC)n3)c2C(=O)O)n1', 0.32),
  ('COc1cc(OC)nc(NC(=O)NS(=O)(=O)N(C)S(C)(=O)=O)n1', 0.39);

----------
- measured_on: AtAHAS P197L mutant (Arabidopsis thaliana, UniProt P17597, P197L)
- Assay type: biochemical
- run_parameters: NAI = no accumulative inhibition detected
measurement_name: kiapp/k3 (efficiency of accumulative inhibition)

INSERT INTO results (compound, measured_on, result) VALUES
  ('COc1cc(OC)nc(Oc2cccc(Oc3nc(OC)cc(OC)n3)c2C(=O)O)n1', 'AtAHAS P197L mutant (Arabidopsis thaliana, UniProt P17597, P197L)', 31),
  ('COc1cc(OC)nc(NC(=O)NS(=O)(=O)N(C)S(C)(=O)=O)n1', 'AtAHAS P197L mutant (Arabidopsis thaliana, UniProt P17597, P197L)', 'NAI'),
  ('COc1cnc(OC)n2nc(NS(=O)(=O)c3c(OCC(F)F)cccc3C(F)(F)F)nc12', 'AtAHAS P197L mutant (Arabidopsis thaliana, UniProt P17597, P197L)', 'NAI'),
  ('CC(C)C1(C)N=C(c2nc3ccccc3cc2C(=O)O)NC1=O (stereo not shown)', 'AtAHAS P197L mutant (Arabidopsis thaliana, UniProt P17597, P197L)', '>10^11');
